Biological target: human GLP-1 receptor (human, UniProt P43220 24-463)
Assay: cell-based or functional assay
Kindly state EC50, CreLuc assay, 100% hP for each of the entries shown.
Give the value in nM but do not write nM after it.

Req: Quick check: EC50, CreLuc assay, 100% hP of YXEGTFTSDYSIXLEKQAQXAFVEWLIKGGPSSAVSLRHYYNWLTRQRY (Aib at 2, 13, 20; K28 side chain: C20DA-gGlu-gGlu-gGlu-gGlu-gGlu-gGlu-eLys; C-terminal NH2) [Compound 33] ?
Resp: 3.17

Req: Consider the binder YXEGTFTSDYSIXLEKQAQXAFVEWLIKGGPSSGASLRHYLNWLTRQRY (Aib at 2, 13, 20; K28 side chain: C20DA-gGlu-gGlu-gGlu-gGlu-gGlu-gGlu-eLys; C-terminal NH2) [Compound 86] and give its measured EC50, CreLuc assay, 100% hP.
Resp: 2.47

Req: Any idea what its EC50, CreLuc assay, 100% hP is? The binder is YXEGTFTSDYSIXLEKQAQXAFVQWLIKGGPESPASLRHYYNWLTRQRY (Aib at 2, 13, 20; K28 side chain: C18DA-gGlu-gGlu-gGlu-gGlu-gGlu; C-terminal NH2) [Compound 12]
Resp: 4.76

Req: Can you share its EC50, CreLuc assay, 100% hP? I mean this binder: YXEGTFTSDYSIXLEKQAQXAFVEWLIKGGPSSGVSIRHYYNWLTRQRY (Aib at 2, 13, 20; K28 side chain: C20DA-gGlu-gGlu-gGlu-gGlu-gGlu-gGlu-eLys; C-terminal NH2) [Compound 27]
Resp: 1.97
